Source listed as patent US20030216416A1.

assay.notes: Stability study: total related substances of crystalline form lots on storage
condition.info: stored at 5° C.; 6 months
Field: Total Related Substances Results. Provide a value for each of the compounds that follow.

Request: Write down Total Related Substances Results measured for item Nc1nc2[nH]cc(CCc3ccc(C(=O)N[C@@H](CCC(=O)O)C(=O)O)cc3)c2c(=O)[nH]1 [Lot A, pemetrexed disodium]
Result: 0.27% of Total

Request: Input Nc1nc2[nH]cc(CCc3ccc(C(=O)N[C@@H](CCC(=O)O)C(=O)O)cc3)c2c(=O)[nH]1 [Lot B, pemetrexed disodium] , output reported Total Related Substances Results.
Result: 0.5% of Total

Request: // fetch Total Related Substances Results given entry Nc1nc2[nH]cc(CCc3ccc(C(=O)N[C@@H](CCC(=O)O)C(=O)O)cc3)c2c(=O)[nH]1 [Lot D, pemetrexed disodium]
Result: 0.33% of Total

Request: Give the value of Total Related Substances Results reported for the following: Nc1nc2[nH]cc(CCc3ccc(C(=O)N[C@@H](CCC(=O)O)C(=O)O)cc3)c2c(=O)[nH]1 [Lot C, pemetrexed disodium]
Result: 0.79% of Total

###

assay.notes: Stability study: solvents (water) content of crystalline form lots on storage
condition.info: stored at 5° C.; 6 months
Exercise: state measured Solvents Results for each of the compounds provided.

Request: Identify the reported Solvents Results for the following entry. Nc1nc2[nH]cc(CCc3ccc(C(=O)N[C@@H](CCC(=O)O)C(=O)O)cc3)c2c(=O)[nH]1 [Lot A, pemetrexed disodium]
Result: 21.1% of Total

Request: Give the reported value of Solvents Results for this record: Nc1nc2[nH]cc(CCc3ccc(C(=O)N[C@@H](CCC(=O)O)C(=O)O)cc3)c2c(=O)[nH]1 [Lot B, pemetrexed disodium]
Result: 21.1% of Total

Request: Tell us which Solvents Results value is on record for Nc1nc2[nH]cc(CCc3ccc(C(=O)N[C@@H](CCC(=O)O)C(=O)O)cc3)c2c(=O)[nH]1 [Lot D, pemetrexed disodium]
Result: 18.2% of Total

Request: Please list Solvents Results recorded for the compound Nc1nc2[nH]cc(CCc3ccc(C(=O)N[C@@H](CCC(=O)O)C(=O)O)cc3)c2c(=O)[nH]1 [Lot C, pemetrexed disodium]
Result: 8.8% of Total

###

assay.notes: Stability study: total related substances of crystalline form lots on storage
condition.info: stored at 5° C.; 0 months
readout.name: Total Related Substances Results

Request: For the molecule Nc1nc2[nH]cc(CCc3ccc(C(=O)N[C@@H](CCC(=O)O)C(=O)O)cc3)c2c(=O)[nH]1 [Lot A, pemetrexed disodium] , report Total Related Substances Results.
Result: 0.24% of Total

Request: Specify reported Total Related Substances Results for the molecule shown: Nc1nc2[nH]cc(CCc3ccc(C(=O)N[C@@H](CCC(=O)O)C(=O)O)cc3)c2c(=O)[nH]1 [Lot C, pemetrexed disodium]
Result: 0.38% of Total

Request: Quick one: give measured Total Related Substances Results for Nc1nc2[nH]cc(CCc3ccc(C(=O)N[C@@H](CCC(=O)O)C(=O)O)cc3)c2c(=O)[nH]1 [Lot D, pemetrexed disodium]
Result: 0.31% of Total

Request: Give Total Related Substances Results for the following molecule: Nc1nc2[nH]cc(CCc3ccc(C(=O)N[C@@H](CCC(=O)O)C(=O)O)cc3)c2c(=O)[nH]1 [Lot B, pemetrexed disodium]
Result: 0.4% of Total

###

assay.notes: Stability study: total related substances of crystalline form lots on storage
condition.info: stored at 5° C.; 3 months
readout.name: Total Related Substances Results

Request: Note Total Related Substances Results for the molecule shown: Nc1nc2[nH]cc(CCc3ccc(C(=O)N[C@@H](CCC(=O)O)C(=O)O)cc3)c2c(=O)[nH]1 [Lot B, pemetrexed disodium]
Result: 0.3% of Total

Request: Consider the molecule Nc1nc2[nH]cc(CCc3ccc(C(=O)N[C@@H](CCC(=O)O)C(=O)O)cc3)c2c(=O)[nH]1 [Lot C, pemetrexed disodium] . State its measured Total Related Substances Results.
Result: 0.79% of Total

Request: Give the reported value of Total Related Substances Results for this record: Nc1nc2[nH]cc(CCc3ccc(C(=O)N[C@@H](CCC(=O)O)C(=O)O)cc3)c2c(=O)[nH]1 [Lot D, pemetrexed disodium]
Result: 0.35% of Total

Request: Please report the measured Total Related Substances Results for Nc1nc2[nH]cc(CCc3ccc(C(=O)N[C@@H](CCC(=O)O)C(=O)O)cc3)c2c(=O)[nH]1 [Lot A, pemetrexed disodium]
Result: 0.26% of Total

###

assay.notes: Stability study: solvents (water) content of crystalline form lots on storage
condition.info: stored at 5° C.; 3 months
readout.name: Solvents Results

Request: Identify Solvents Results associated with the molecule Nc1nc2[nH]cc(CCc3ccc(C(=O)N[C@@H](CCC(=O)O)C(=O)O)cc3)c2c(=O)[nH]1 [Lot B, pemetrexed disodium]
Result: 21.0% of Total

Request: Please list Solvents Results recorded for the molecule Nc1nc2[nH]cc(CCc3ccc(C(=O)N[C@@H](CCC(=O)O)C(=O)O)cc3)c2c(=O)[nH]1 [Lot C, pemetrexed disodium]
Result: 16.7% of Total

Request: For the molecule Nc1nc2[nH]cc(CCc3ccc(C(=O)N[C@@H](CCC(=O)O)C(=O)O)cc3)c2c(=O)[nH]1 [Lot A, pemetrexed disodium] , report Solvents Results.
Result: 22.0% of Total

Request: Let me know recorded Solvents Results for Nc1nc2[nH]cc(CCc3ccc(C(=O)N[C@@H](CCC(=O)O)C(=O)O)cc3)c2c(=O)[nH]1 [Lot D, pemetrexed disodium] , thanks.
Result: 14.0% of Total

###

assay.notes: Stability study: solvents (water) content of crystalline form lots on storage
condition.info: stored at 5° C.; 0 months; lots A-C water and ethanol, lot D water only
Assign Solvents Results to each entry below.

Request: Recall and state the measured Solvents Results for Nc1nc2[nH]cc(CCc3ccc(C(=O)N[C@@H](CCC(=O)O)C(=O)O)cc3)c2c(=O)[nH]1 [Lot A, pemetrexed disodium] .
Result: 10.2% of Total

Request: Identify the reported Solvents Results for the following entry. Nc1nc2[nH]cc(CCc3ccc(C(=O)N[C@@H](CCC(=O)O)C(=O)O)cc3)c2c(=O)[nH]1 [Lot D, pemetrexed disodium]
Result: 8.5% of Total

Request: Tell me measured Solvents Results for Nc1nc2[nH]cc(CCc3ccc(C(=O)N[C@@H](CCC(=O)O)C(=O)O)cc3)c2c(=O)[nH]1 [Lot C, pemetrexed disodium] please.
Result: 8.8% of Total

Request: Give reported Solvents Results value for Nc1nc2[nH]cc(CCc3ccc(C(=O)N[C@@H](CCC(=O)O)C(=O)O)cc3)c2c(=O)[nH]1 [Lot B, pemetrexed disodium]
Result: 11.0% of Total

###

assay.notes: Stability study: solvents (water) content of crystalline form lots on storage
condition.info: stored at 5° C.; 12 months
Would you mind telling me the reported Solvents Results of each entry?

Request: Return value of Solvents Results for input Nc1nc2[nH]cc(CCc3ccc(C(=O)N[C@@H](CCC(=O)O)C(=O)O)cc3)c2c(=O)[nH]1 [Lot A, pemetrexed disodium] , no commentary.
Result: 21.5% of Total

Request: Fill in Solvents Results for record Nc1nc2[nH]cc(CCc3ccc(C(=O)N[C@@H](CCC(=O)O)C(=O)O)cc3)c2c(=O)[nH]1 [Lot C, pemetrexed disodium]
Result: 21.0% of Total

Request: Give Solvents Results for Nc1nc2[nH]cc(CCc3ccc(C(=O)N[C@@H](CCC(=O)O)C(=O)O)cc3)c2c(=O)[nH]1 [Lot B, pemetrexed disodium]
Result: 21.0% of Total

Request: Find the measured Solvents Results of Nc1nc2[nH]cc(CCc3ccc(C(=O)N[C@@H](CCC(=O)O)C(=O)O)cc3)c2c(=O)[nH]1 [Lot D, pemetrexed disodium] and report it.
Result: 21.7% of Total
